- protocol: Compound mouse plasma stability
- Assay type: in vitro ADME
- condition_notes: 120 minutes
measured_quantity: % Remaining (%)

Take a look at these entries with their results.
> print(dat)
                                   compound  quantitative.readout
1  COc1ccc(OC)c(CCN(Cc2cc(C)cc(Cl)c2)C(=O)CN)c1                    89
2  COc1ccc(OC)c(CCN(Cc2cc(C)cc(Cl)c2)C(=O)OC(C)OC(=O)C(C)(C)C)c1 (centres unmarked)                    00

1 = CCOC(=O)N(CCc1cc(OC)ccc1OC)Cc1cc(C)cc(Cl)c1
2 = COc1ccc(OC)c(CCN(Cc2cc(C)cc(Cl)c2)Cc2oc(=O)oc2C)c1
3 = COc1ccc(OC)c(CCN(Cc2cc(C)cc(Cl)c2)C(=O)OCc2oc(=O)oc2C)c1
Put these in order: smallest % Remaining first, largest last. Field: ranking. Enter the labels in the order requested.
3, 2, 1

---

- protocol: Compound chemical stability in SGF without pepsin
- Type: physicochemical
- condition_notes: 30 minutes
measured_quantity: % Remaining (%)

> print(dat)
                                   compound  measured.quantity  quantitative.readout
1  COc1ccc(OC)c(CCN(Cc2cc(C)cc(Cl)c2)C(=O)OC(C)OC(=O)C(C)(C)C)c1 (centres unmarked) [Compound 4]        % Remaining                    90
2  COc1ccc(OC)c(CCN(Cc2cc(C)cc(Cl)c2)C(=O)OCc2oc(=O)oc2C)c1 [Compound 3]        % Remaining                   105
3  COc1ccc(OC)c(CCN(Cc2cc(C)cc(Cl)c2)Cc2oc(=O)oc2C)c1 [Compound 2]        % Remaining                   100
4  CCOC(=O)N(CCc1cc(OC)ccc1OC)Cc1cc(C)cc(Cl)c1 [Compound 5]        % Remaining                   100
5  COc1ccc(OC)c(CCN(Cc2cc(C)cc(Cl)c2)C(=O)CN)c1 [Compound 6]        % Remaining                    98
